Assay explanation: OD615 S. cerevisiae growth inhibition, permissive medium, pilot counter-assay, permissive growth control for S. cerevisiae lifespan shortening project (AID 705)
Condition info: OD615, 24 h, at 10 µM, stronger effect = higher value
Measured attribute: growth inhibition (%)
Give a bare numeral; the unit % is implied.

Consider the reported growth inhibition for these molecules:
[
  {
    "Molecule": "O=C1c2ccccc2C(O)N1c1ccc(Cl)cc1 (stereo unspecified)",
    "Value": -8.19
  },
  {
    "Molecule": "CCOc1ccc(C(=O)c2nc3c(n2O)CCCC3)cc1",
    "Value": -15
  },
  {
    "Molecule": "Brc1ccc(CSc2nnc(-c3ccccn3)n2Cc2ccco2)cc1",
    "Value": 2.3
  }
]

Q: Looking for the measured growth inhibition of CC(=O)Nc1ccc(NC2(C)C(=O)c3ccccc3C2=O)cc1 , can you help?
Ans: -0.27

Q: Try this molecule too: COc1ccc(-n2ncc3c(N(C)C4CCCCC4)ncnc32)cc1
Ans: -13.1

Q: Next molecule up: Cc1nc2sc(C(c3ccc(Cl)cc3)N3CCN(CCO)CC3)c(O)n2n1 (stereo unspecified)
Ans: 7.67
